Reported IC50 values for a set of molecules
EXPERIMENTAL PROTOCOL: Inhibition of trypanothione reductase (unknown origin)
Entry rule: numbers only, all in µM.

Solved entries (count: 6):
MOLECULE: O=C1c2ccccc2C(=O)N1c1ccc([Se][Se]c2ccc(N3C(=O)c4ccccc4C3=O)cc2)cc1
READING UNIT: µM
IC50: 21.8
--
MOLECULE: O=C1C=CC(=O)N1c1ccc([Se][Se]c2ccc(N3C(=O)C=CC3=O)cc2)cc1
READING UNIT: µM
IC50: 0.23
--
MOLECULE: N#C[Se]c1ccc(NC(=O)C2C3C=CC(O3)C2C(=O)O)cc1 (configuration not stated)
READING UNIT: µM
IC50: 0.54
--
MOLECULE: O=C(O)C1C2C=CC(O2)C1C(=O)Nc1ccc([Se][Se]c2ccc(NC(=O)C3C4C=CC(O4)C3C(=O)O)cc2)cc1 (configuration not stated)
READING UNIT: µM
IC50: 25
--
MOLECULE: O=C(O)C1CCCCC1C(=O)Nc1ccc([Se][Se]c2ccc(NC(=O)C3CCCCC3C(=O)O)cc2)cc1 (configuration not stated)
READING UNIT: µM
IC50: 18.5
--
MOLECULE: CCN(CC)CCCC(C)Nc1c2ccc(Cl)cc2nc2ccc(OC)cc12 (configuration not stated)
READING UNIT: µM
IC50: 17

Challenge: Entry under review: `O=C(NC(=[Se])Nc1ccc([Se][Se]c2ccc(NC(=[Se])NC(=O)c3ccco3)cc2)cc1)c1ccco1` . Reported IC50?
Response given: 9.22
